Assign growth to each entry below.
- Test system: M14 melanoma
- experimentalProtocol: NCI-60 one-dose screen, 48 h (100 = growth as untreated, 0 = no growth, -100 = all killed)
- experimentalParameters: 10 µM unless noted
This is part of a sample that, as a whole, favours compounds with a hit. Of some 83,000 tested, about 20% had one in any assay. Active and inactive are the calls of the source. How the source made its calls: active means growth percent below 10; inactive means the rest.

Suppose we examine the molecule COc1cc2c(c(OC)c1OC)C(=O)CC(c1cccc(NC(=O)c3cc(NC(=O)[C@@H](N)CO)ccc3C)c1)O2 (some centres undefined) ; what growth value has been reported? 119% (inactive)

Which growth is reported for this molecule? `CCN1C(=O)/C(=N\N=C(/C)c2ccc3c(c2)Nc2ccccc2S3)c2cc(Cl)ccc21` 67.5% (inactive)

Looking for the measured growth of `Cn1cc(-c2cc(N)n3nc(-c4c[nH]c5ccccc45)cc3n2)c2cc(Br)cnc21` , can you help? -71% (active)

Entry `COc1ccc(NC(=O)Cn2c3c(sc2=O)[C@H]2[C@@H](O)[C@@H](O)[C@H](O)[C@@H]2CS3)cc1` : reported growth = ? 103% (inactive)

What value of growth has been recorded for this entry: `O=C(NN1C(=O)/C(=C/C=C/c2ccc([N+](=O)[O-])o2)SC1=S)c1ccc(Cl)cc1` -68.7% (active)

growth lookup needed for COc1ccc(N2N=C(c3ccc4c(c3)OCO4)CC2c2cccc(NC(=O)CCNS(=O)(=O)c3ccc(Cl)cc3)c2)cc1 (centres undefined) , thanks. 29.5% (inactive)

I am curious: what growth value has been reported for `O=C(CCN1C(=O)/C(=C/c2ccc(F)cc2)SC1=S)N1CCOCC1` ? 57.1% (inactive)

Requested field: growth. Item: C#CCOc1cc(N(CC)CC)ccc1C(C(=O)NC(C)(C)C)N(C(=O)C1CCc2cc(F)ccc2O1)c1ccccc1F (centres undefined) 39% (inactive)

What does the record list as growth for O=C(C1=CNC(=S)NC1c1ccc(O)cc1)c1cc2ccccc2oc1=O (centres undefined) ? 96.4% (inactive)

So what does the record say about growth for COc1cc(C2CC(c3cc(OC)c(OC)c(OC)c3)=NN2C(C)=O)ccc1OCc1ccccc1 (centres undefined) ? 36.9% (inactive)

Any idea what growth was measured for `Cn1cc(-c2nnc(N)nc2-c2c[nH]c3ccccc23)c2cccnc21` ? 20.8% (inactive)

Give the measured growth of `COc1cc2oc(-c3cccc(C(=O)Nc4ccc(Cl)cc4)c3)cc(=O)c2c(OCCNC(=O)[C@H](CCC(=O)OC(C)(C)C)NC(=O)OC(C)(C)C)c1OC` . 106% (inactive)

Which measured growth value corresponds to `CC(=O)Nc1ccc(-c2cn(-c3cccc(C(=O)Nc4ccc(N5CCN(C)CC5)cc4)c3)nn2)cn1` ? 87% (inactive)

Please give the measured growth for this molecule: `COc1ccc(-c2c(Nn3cnnn3)no[n+]2[O-])cc1` 59.9% (inactive)

Would you kindly share the measured growth for CC1(C)CC[C@]2(C(=O)Nc3ccccc3)CC[C@]3(C)C(=CCC4[C@@]5(C)C[C@@H](O)[C@H](O)[C@@](C)(CO)C5CC[C@]43C)C2C1 (some centres undefined) ? 56.1% (inactive)

Need growth of COc1cc2c(c(OC)c1OC)C(=O)CC(c1cccc(NC(=O)c3cc([N+](=O)[O-])ccc3Cl)c1)O2 (centres undefined) , thanks. 0.0604% (active)

# growth lookup, item `Cc1c(C(=O)NNC(=O)Nc2ccc(Cl)cc2)nnn1-c1ccc(Br)cc1` 101% (inactive)

Value lookup for growth; key = `Cc1ccc(C(=O)C(c2c[nH]c3ccccc23)c2c[nH]c3ccccc23)cc1` 33.9% (inactive)

# query: growth of entry `O=C(/C=C/c1ccc(-c2ccccc2)cc1)c1nc2ccccc2n1Cc1ccc(Br)cc1` 74% (inactive)

Which growth value belongs to Cc1nc(Nc2ncc(C(=O)Nc3c(C)cccc3Cl)s2)cc(N2CCN(CCCNC(=O)COc3ccc(C4CCC(=O)NC4=O)cc3)CC2)n1 (centres undefined) ? 60.2% (inactive)

Data request, read-out growth, for `COc1ccc(-c2ccnc(SCc3cc4cc(Cl)ccc4[nH]c3=O)n2)cc1` 73.8% (inactive)

Reported growth for `COc1ccc2c(c1)c(-c1cc3nc(-c4cn(C)c5ncc(Br)cc45)cc(N)n3n1)cn2C` : what is it? -74.4% (active)

Which growth value is on record for `Cn1cc(-c2cc(N)n3nc(-c4cn(C)c5ncccc45)cc3n2)c2cccnc21` ? 93.1% (inactive)

I have this molecule here, `CCCCSc1nc(NCCc2c[nH]c3ccccc23)c(C#N)c(-c2ccc(OC)cc2)n1` , and I need its recorded growth. 70.1% (inactive)

// growth lookup, key: COc1cc2c(c(OC)c1OC)C(=O)CC(c1cccc(NC(=O)c3cccc([N+](=O)[O-])c3)c1)O2 (centres undefined) 37.2% (inactive)

Would you kindly share the measured growth for CC1(C)CC[C@]2(C(=O)O)CC[C@]3(C)C(=CCC4[C@@]5(C)C[C@@H](O)[C@@H]6OC(c7ccccc7Br)OC[C@@]6(C)C5CC[C@]43C)C2C1 (some centres undefined) ? 31.8% (inactive)

Which growth value belongs to `O=c1[nH]c2ccccc2cc1CSc1cccc(Nc2nccc(-c3ccc4ccccc4c3)n2)c1` ? 86.7% (inactive)

Given COc1c(F)ccc(C(=O)Nc2ccc3nc(NC(=O)C4CCCN(S(=O)(=O)C5CC5)C4)sc3c2)c1F (centres undefined) , state its recorded growth. 50.3% (inactive)

# query: growth of entry `COc1ccc(-c2nnc3ccc(N/N=C/c4ccc(O)cc4)nn23)cc1` 56.4% (inactive)

Which growth value belongs to `CCOc1ccc(C(=O)NC(=S)Nc2ccc(S(N)(=O)=O)cc2)cc1` ? 102% [100 µM] (inactive)

Returns the measured growth for the input molecule. Input: `COc1ccc2[nH]cc(-c3nnc(N)nc3-c3c[nH]c4ncc(Br)cc34)c2c1` 97.6% (inactive)

Field request: growth | item: `Cc1ccc(-c2nc(C#N)c(S(=O)(=O)N3CCN(S(=O)(=O)c4ccccc4)CC3)o2)cc1` -21.3% (active)

Please look up its growth: `Nc1n[nH]c2cccc(C#Cc3cccc(NC(=O)c4cccc(Cl)c4)c3)c12` 15.9% (inactive)

Dear colleague, I am looking for the recorded growth of the following molecule: `COc1cccc(/C=C/c2nc3ccccc3c(=O)n2CC(=O)Nc2ccc(Cl)cc2)c1` 76.3% (inactive)
